B1: Pre-mRNA-processing factor 40 homolog B, residues 274 to 332; numbered along this chain, Q6NWY9 (parent)
chain: SNREKAKQAFKELLRDKAVPSNASWEQAMKMVVTDPRYSALPKLSEKKQAFNAYKAQRE

Variants of: B1
Test: abundance fitness (aPCA) (normalised: wild type 0, dead -1); higher = more abundant; growth selection in yeast, the domain comes from the species named
Settings: Homo sapiens
Tag: Yes if measured abundance fitness is not below -0.2, No if it is.

The following variants have reported results that may help.
Quick check, abundance fitness >= -0.2? Q27M
No

Consider next the variant D16S in the same way.
No

How about this variant: K30Q
Yes

Another: K43M
Yes

Param item: E46S
No

What do you have for F10P ?
Yes

Now consider W25F .
Yes

Likewise for S24Q ?
No

Further cases:
// inclusive: abundance fitness at least -0.2? input: Q27T
Yes

Please answer likewise for M29L
No

Queued: V32H
Yes

Next record, please: L41M
Yes

// next record V32L
Yes

Try the variant P36D
Yes

Would you mind doing Q49S as well?
Yes

Next: L13E
No

Follow-up item: Q49K
Yes

Same read-out for A28D ?
No

Then this variant: W25V
No

Try Q8M next.
No

Entry Q27E please
Yes

Next record, please: L41T
No
